study target: T1, ACVR2B-Fc fusion protein (human, UniProt Q13705 19-137)
T1 construct: also called water-soluble ACVR2B
T1 sequence: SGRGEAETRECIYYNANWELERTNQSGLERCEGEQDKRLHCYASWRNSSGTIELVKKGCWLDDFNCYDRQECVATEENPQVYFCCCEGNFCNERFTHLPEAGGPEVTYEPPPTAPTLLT
assay remarks: phage ELISA, ACVR2B coated
endpoint: OD490

Give OD490 for ACVR2B A09 (monoclonal scFv-phage) (scFv, V domains shown, also called A9) VH: VQLVESGGGLVQPGRSLRLSCAASGFTFDSYWMSWVRQAPGKGLEWVANIKYDGSEKHYMDSVKGRFTISRDNAKNSVYLQMNSLRAEDTAVYYCAKGAWLDYWGQGTQVTVSS VL: IQMTQSPSAMSASVGDRVTITCRASQGISNYLAWFQQKPGKVPKRLIYAASSLQSGVPSRFSGSGSGTGFTLTITSLQPEDFATYYCLQHKSYPYTFGQGTKLEIK
2.18 OD

Give OD490 for ACVR2B C08 (monoclonal scFv-phage) (scFv, V domains shown, also called C8) VH: VQLVESGGGLVQPGGSLRLSCSASGFTFSSYAMHWVRQAPGKGLEYVSAISSNGGSTYYADSVKGRFTISRDNSKNTLYLQMNSLRAEDTAVYYCAKTYGGYGNAFDIWGQGTMITVSS VL: DIQMTQSPSSVSASVGDRVTITCRASQGISRWLAWYQQKPGKAPKLLIYAASNLQSGVPSRFSGSGSGTDFTLTINSLQPEDFATYFCQQGKSFPYTFGPGTKVEIK
2.87 OD

Give OD490 for ACVR2B D11 (monoclonal scFv-phage) (scFv, V domains shown) VH: MQLVQSGGGLVQPGRSLGLSCTASGFTFGDYAMSWVRQAPGKGLEWVGFIRSKAYGGTTEYAASVKGRLTISRDDSKSIAYLQMNSLRAEDTAVYYCARGHYGMDVWGQGTTVTVSS VL: DIQMTQSPSSLSASVGDRVTITCRASQNISNFLNWYQQKPGKAPKLLIYSASRLQRGVPSRFSGSGSGTDFTLTISSLQPEDFATYYCQQSYSTPYTFGQGTKLEIK
3.05 OD
